The measurements presented in this section are drawn from patent US20150344540A1.

- SYSTEM NAME: human GLP-1 receptor (human, UniProt P43220)
- MEASUREMENT DESCRIPTION: cell-based or functional assay
Where no end group is shown, it is not given here.
Rule for this label: yes (1) means CRE luciferase EC50, 1% HSA is less than 0.03 nM; no (0) means CRE luciferase EC50, 1% HSA is at least 0.03 nM.

BINDER	ASSIGNED LABEL
HAEGTFTSDLSKQMEEEAVREFIEWLKNKVLEFL-NH2 [[Ala2,Glu21,Lys29,Val30,Leu31,Glu32,Phe33,Leu34]-Exendin-4-(1-34)-peptide amide]	yes (1)
HAEGTFTSDVSSYLEGQAAKEFIAWLVEKVKEFLER [[Glu34,Lys35,Val36,Lys37]-GLP-1-(7-37)-peptidyl-Glu-Phe-Leu-Glu-Arg]	yes (1)
HAQGTFTSDYSKYLDSKAAREFVQWLLEKVKEFL-NH2 [[Ala2,Lys17,Ala18,Arg20,Glu21,Leu27,Glu28,Lys29]-Glucagonyl-(1-29)-Val-Lys-Glu-Phe-Leu amide]	no (0)
HGEGTFTSDVSSYLEEEAVKEFIAWLVEKVKEF-NH2 [[Gly8,Glu22,Glu23,Val25,Glu34,Lys35,Val36,Lys37]-GLP-1-(7-37)-peptidyl-Glu-Phe amide]	yes (1)
HAEGTFTSDVSSYLEGEAVKEFIAWLVEKVKEFLEK [[Glu23,Val25,Glu34,Lys35,Val36,Lys37]-GLP-1-(7-37)-peptidyl-Glu-Phe-Leu-Glu-Lys]	no (0)
